# measured target: BTK (Homo sapiens (Human))
# Sequence (Q06187 whole entry): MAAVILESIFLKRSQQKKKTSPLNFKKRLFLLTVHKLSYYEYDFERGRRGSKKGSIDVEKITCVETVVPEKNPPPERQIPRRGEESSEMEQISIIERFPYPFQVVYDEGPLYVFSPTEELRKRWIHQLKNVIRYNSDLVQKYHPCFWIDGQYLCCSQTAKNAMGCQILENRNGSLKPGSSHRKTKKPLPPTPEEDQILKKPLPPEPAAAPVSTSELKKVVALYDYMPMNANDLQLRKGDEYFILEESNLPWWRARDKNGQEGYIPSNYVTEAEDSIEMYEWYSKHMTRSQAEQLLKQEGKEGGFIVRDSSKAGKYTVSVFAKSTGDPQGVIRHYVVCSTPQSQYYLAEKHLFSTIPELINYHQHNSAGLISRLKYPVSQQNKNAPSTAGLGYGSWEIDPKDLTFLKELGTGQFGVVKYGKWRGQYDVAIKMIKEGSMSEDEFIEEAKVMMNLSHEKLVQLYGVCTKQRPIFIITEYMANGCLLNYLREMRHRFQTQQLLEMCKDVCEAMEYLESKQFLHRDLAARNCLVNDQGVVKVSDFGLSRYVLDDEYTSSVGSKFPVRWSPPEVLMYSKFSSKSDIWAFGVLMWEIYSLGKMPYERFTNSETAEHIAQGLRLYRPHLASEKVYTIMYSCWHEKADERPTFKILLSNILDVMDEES
# experiment summary: Z'-LYTE kinase inhibition assay, BTK
# Assay type: biochemical
# experimental conditions: read-out: % inhibition BTK; heading: % inhibition BTK; compound at 0.041 μM
Reported inhibition at 0.041 µM values are given for each entry in this list.

{"compound": "C=CC(=O)Nc1cccc(-c2cccc3cnc(Nc4ccc(N5CCN(C(C)=O)CC5)cc4)nc23)c1 [Example C032]", "measured target": "BTK (Homo sapiens (Human))", "experimental value": "> 50%"}
{"compound": "C=CC(=O)Nc1cccc(-c2cccc3cnc(Nc4ccc(OC5CCN(C(C)=O)CC5)cc4)nc23)c1 [Example C125]", "measured target": "BTK (Homo sapiens (Human))", "experimental value": "> 50%"}
{"compound": "C=CC(=O)Nc1cccc(-c2cccc3cnc(Nc4ccc(N5CCN(C)CC5)nc4OC)nc23)c1 [Example C055]", "measured target": "BTK (Homo sapiens (Human))", "experimental value": "< 50%"}

[Q] For BTK (Homo sapiens (Human)), provide inhibition at 0.041 µM of C=CC(=O)Nc1cccc(-c2cccc3cnc(Nc4ccc(N5CCN(CCF)CC5)cc4)nc23)c1 [Example C053] please.
[A] > 50%

[Q] For BTK (Homo sapiens (Human)), provide inhibition at 0.041 µM of C=CC(=O)Nc1cccc(-c2cccc3cnc(Nc4ccc(O[C@@H]5CCOC5)cc4)nc23)c1 [Example C119] please.
[A] > 50%

Reference for the values: patent US11304957B2
